- MEASURED_ON: UniProt Q9Y5Z0
- Sequence (Q9Y5Z0 63-473 limits assumed): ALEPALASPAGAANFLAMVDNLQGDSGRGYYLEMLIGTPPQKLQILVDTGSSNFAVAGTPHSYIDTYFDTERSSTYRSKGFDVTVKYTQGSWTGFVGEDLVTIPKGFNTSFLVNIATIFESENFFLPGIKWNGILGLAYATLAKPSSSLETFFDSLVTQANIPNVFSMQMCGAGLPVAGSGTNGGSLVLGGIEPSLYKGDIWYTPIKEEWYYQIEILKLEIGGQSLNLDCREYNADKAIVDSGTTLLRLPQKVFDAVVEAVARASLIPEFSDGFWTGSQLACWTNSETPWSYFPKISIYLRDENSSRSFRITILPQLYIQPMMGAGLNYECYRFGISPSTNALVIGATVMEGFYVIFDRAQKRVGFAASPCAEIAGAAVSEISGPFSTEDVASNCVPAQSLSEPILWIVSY
pKi: −log10 of the molar value.
# binarize pKi: threshold 8 inclusive, high side Fulfilled, low side Not fulfilled

Input line: Hello, I need to know if C[C@@]1(c2cc([N+](=O)[O-])ccc2F)CS(=O)(=O)[C@]2(CCOC2)C(=N)N1 has measured pKi not below 8. Thanks!
Output line: Not fulfilled

Input line: Hello, I need to know if C[C@@]1(c2cc(NC(=O)c3ccc(Cl)cn3)ccc2F)CS(=O)(=O)C2(CCCC2)C(=N)N1 [Example 12] has measured pKi not below 8. Thanks!
Output line: Fulfilled

Input line: Hello, I need to know if C[C@@]1(c2sc(-c3ccnc(-c4ccco4)c3)cc2Cl)CS(=O)(=O)[C@]2(CCOC2)C(=N)N1 [Example 62l] has measured pKi not below 8. Thanks!
Output line: Fulfilled

Input line: Hello, I need to know if C[C@@]1(c2sc(Br)cc2Cl)CS(=O)(=O)C2(CCCCC2)C(=N)N1 has measured pKi not below 8. Thanks!
Output line: Not fulfilled

Input line: Hello, I need to know if C[C@@]1(c2cc(NC(=O)c3ccc(F)cn3)ccc2F)CS(=O)(=O)C2(CCC(O)C2)C(=N)N1 (single isomer, unassigned) [Example 76a] has measured pKi not below 8. Thanks!
Output line: Fulfilled

Input line: Hello, I need to know if C[C@@]1(c2sc(-c3cncc(C#N)c3)cc2Cl)CS(=O)(=O)C2(CCCC2)C(=N)N1 [Example 42] has measured pKi not below 8. Thanks!
Output line: Fulfilled

Input line: Hello, I need to know if C[C@@]1(c2cc(N)ccc2F)CS(=O)(=O)[C@]2(CCOC2)C(=N)N1 has measured pKi not below 8. Thanks!
Output line: Not fulfilled

Input line: Hello, I need to know if C[C@@]1(c2cc(N)ccc2F)CS(=O)(=O)C2(CC2)C(=N)N1 has measured pKi not below 8. Thanks!
Output line: Not fulfilled

Input line: Hello, I need to know if C[C@@]1(c2cc(NC(=O)c3ccc(F)cn3)ccc2F)CS(=O)(=O)C2(CCCC2)C(=N)N1 [Example 13] has measured pKi not below 8. Thanks!
Output line: Fulfilled

Input line: Hello, I need to know if C[C@@]1(c2cc(NC(=O)c3ccc(Cl)cn3)ccc2F)CS(=O)(=O)[C@]2(CCOC2)C(=N)N1 [Example 62c] has measured pKi not below 8. Thanks!
Output line: Fulfilled

Input line: Hello, I need to know if C[C@@]1(c2cc(N)ccc2F)CS(=O)(=O)C2(CCCC2)C(=N)N1 has measured pKi not below 8. Thanks!
Output line: Not fulfilled

Input line: Hello, I need to know if C[C@@]1(c2cc(NC(=O)c3ccc(F)cn3)ccc2F)CS(=O)(=O)[C@]2(CCOC2)C(=N)N1 [Example 62b] has measured pKi not below 8. Thanks!
Output line: Fulfilled

Input line: Hello, I need to know if COc1cccc2cc(-c3cc(Cl)c([C@]4(C)CS(=O)(=O)C5(CCC5)C(=N)N4)s3)[nH]c12 [Example 58] has measured pKi not below 8. Thanks!
Output line: Fulfilled

Input line: Hello, I need to know if C[C@@]1(c2cc(NC(=O)c3ccc(F)cn3)ccc2F)CS(=O)(=O)C2(CC(O)C2)C(=N)N1 (stereo partly shown) [Example 75] has measured pKi not below 8. Thanks!
Output line: Fulfilled

Input line: Hello, I need to know if C[C@@]1(c2cc(NC(=O)c3ncc(F)cc3F)ccc2F)CS(=O)(=O)C2(CC2)C(=N)N1 [Example 4] has measured pKi not below 8. Thanks!
Output line: Fulfilled
